Taken from patent US20250197387A1.

Target: BCL-XL (Homo sapiens)
Construct: endogenous in cells; host or cells: MOLT-4
Sequence (Q07817 whole entry): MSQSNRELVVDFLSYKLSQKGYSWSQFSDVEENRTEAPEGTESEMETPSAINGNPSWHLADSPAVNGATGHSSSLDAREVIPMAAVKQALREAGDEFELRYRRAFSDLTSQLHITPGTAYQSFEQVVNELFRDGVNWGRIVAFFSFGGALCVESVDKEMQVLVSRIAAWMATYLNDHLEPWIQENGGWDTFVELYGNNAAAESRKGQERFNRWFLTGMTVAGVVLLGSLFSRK
Test: Bcl-xL ELISA degradation in MOLT-4 cells, 6 h
Type: cell-based
Description: The letter codes for BCL-XL DC50 include: A (<0.01 μM); B (0.01-0.1 μM); C (>[…]); D (>0.5-1.0 μM); and E (>1.0 μM). The letter codes for Dmax % include A (>75%); B (50 to 75%); C (<50%).
Reported Dmax is given for each of the following molecules.

MOLECULE: Cc1ncsc1-c1ccc(CNC(=O)[C@@H]2C[C@@H](O)CN2C(=O)[C@@H](NC(=O)[C@@H]2CCN(c3ccc(S(=O)(=O)NC(=O)c4nc(N5CCc6cccc(C(=O)Nc7nc8ccccc8s7)c6C5)ccc4-c4cnn(CC5CCCCC5)c4C)cc3)C2)C(C)(C)C)cc1
Dmax: > 75%

MOLECULE: Cc1cc(N(C)c2ccc(-c3cnn(CC4CCCCC4)c3C)c(C(=O)NS(=O)(=O)CCCCCC(=O)N[C@H](C(=O)N3C[C@H](O)C[C@H]3C(=O)N[C@@H](C)c3ccc(-c4scnc4C)cc3)C(C)(C)C)n2)nnc1Nc1nc2cccnc2s1
Dmax: > 75%

MOLECULE: Cc1ncsc1-c1ccc([C@H](C)NC(=O)[C@@H]2C[C@@H](O)CN2C(=O)[C@@H](NC(=O)CCCCCS(=O)(=O)NC(=O)c2nc(N3CCc4cccc(C(=O)Nc5nc6ccccc6s5)c4C3)ccc2-c2cnn(CC3CCCC3)c2C)C(C)(C)C)cc1
Dmax: > 75%

MOLECULE: Cc1ncsc1-c1ccc([C@H](C)NC(=O)[C@@H]2C[C@@H](O)CN2C(=O)[C@@H](NC(=O)CCCCc2nc(C3CCCN(C(=O)c4nc(N5CCc6cccc(C(=O)Nc7nc8ccccc8s7)c6C5)ccc4-c4cnn(CC5CCCCC5)c4C)C3)no2)C(C)(C)C)cc1 (stereo partly shown)
Dmax: > 75%

----------
Target: BCL-XL (Homo sapiens)
Construct: endogenous in cells; host or cells: MOLT-4
Assay: Bcl-xL ELISA degradation in MOLT-4 cells, 6 h
Type: cell-based
Details: read-out: Bcl-xL ELISA in MOLT-4 degradation 6 h: Mean external-Abs DC50

STRUCTURE_AS_SMILES: Cc1ncsc1-c1ccc([C@H](C)NC(=O)[C@@H]2C[C@@H](O)CN2C(=O)[C@@H](NC(=O)CCCc2ccc(S(=O)(=O)NCc3nc(N4CCc5cccc(C(=O)Nc6nc7ccccc7s6)c5C4)ccc3-c3cnn(CC4CCCCC4)c3C)cc2)C(C)(C)C)cc1
DC50: > 1000 nM

STRUCTURE_AS_SMILES: Cc1ncsc1-c1ccc([C@H](C)NC(=O)[C@@H]2C[C@@H](O)CN2C(=O)[C@@H](NC(=O)CCCCN(C)CCCCNC(=O)c2nc(N3CCc4cccc(C(=O)Nc5nc6ccccc6s5)c4C3)ccc2-c2cnn(CC3CCCCC3)c2C)C(C)(C)C)cc1
DC50: > 1000 nM

STRUCTURE_AS_SMILES: Cc1ncsc1-c1ccc([C@H](C)NC(=O)[C@@H]2C[C@@H](O)CN2C(=O)[C@@H](NC(=O)CCNCCS(=O)(=O)NC(=O)c2nc(N3CCc4cccc(C(=O)Nc5nc6cccnc6s5)c4C3)ccc2-c2cnn(CC3CCCCC3)c2C)C(C)(C)C)cc1
DC50: 10 to 100 nM

STRUCTURE_AS_SMILES: Cc1ncsc1-c1ccc([C@H](C)NC(=O)[C@@H]2C[C@@H](O)CN2C(=O)[C@H](NC(=O)CCCCCCCS(=O)(=O)NC(=O)c2nc(N3CCc4cccc(C(=O)Nc5nc6ccccc6s5)c4C3)ccc2-c2cnn(CC(C)C)c2C)C(C)(C)C)cc1
DC50: 10 to 100 nM

STRUCTURE_AS_SMILES: C#Cc1ccc(CNC(=O)[C@@H]2C[C@@H](O)CN2C(=O)[C@@H](NC(=O)CCCCS(=O)(=O)NC(=O)c2nc(N(C)c3cc(C)c(Nc4nc5cccnc5s4)nn3)ccc2-c2cnn(CC34CC5CC(CC(C5)C3)C4)c2C)C(C)(C)C)cc1
DC50: 100 to 500 nM

STRUCTURE_AS_SMILES: C#Cc1ccc(CNC(=O)[C@@H]2C[C@@H](O)CN2C(=O)[C@@H](NC(=O)C2CCN(c3ccc(S(=O)(=O)NC(=O)c4nc(N5CCc6cccc(C(=O)Nc7nc8ccccc8s7)c6C5)ccc4-c4cnn(CC5CCCCC5)c4C)cc3)CC2)C(C)(C)C)c(OCCO)c1
DC50: 10 to 100 nM

STRUCTURE_AS_SMILES: Cc1ncsc1-c1ccc(CNC(=O)[C@@H]2C[C@@H](O)CN2C(=O)[C@@H](NC(=O)C2CN(CCS(=O)(=O)NC(=O)c3nc(N4CCc5cccc(C(=O)Nc6nc7ccccc7s6)c5C4)ccc3-c3cnn(CC4CCCCC4)c3C)C2)C(C)(C)C)cc1
DC50: 100 to 500 nM

STRUCTURE_AS_SMILES: Cc1ncsc1-c1ccc([C@H](C)NC(=O)[C@@H]2C[C@@H](O)CN2C(=O)[C@@H](c2cc(N3CC4(CN(c5ccc(S(=O)(=O)NC(=O)c6nc(N7CCc8cccc(C(=O)Nc9nc%10ccccc%10s9)c8C7)ccc6-c6cnn(CC7CCCCC7)c6C)cc5)C4)C3)no2)C(C)C)cc1
DC50: 10 to 100 nM
